Value source: paper PMC10761851

Field: kcat/Km. Provide a value for each of the proteins that follow.
substrate: O=C1CCC/C1=C\c1ccccc1; assay: purified protein; format: biochemical, Bacillus subtilis; conditions: 1.0 mM NADPH, 10 μM enzyme, PBS 100 mM, pH 7.5, 30 °C
One number for each entry, in M⁻¹ s⁻¹.

Worked cases, answers included:
- protein: "YqjM (Bacillus subtilis subsp. subtilis str. 168; C26G/I69Y) (protein, ene-reductase, FMN enzyme) ARKLFTPITIKDMTLKNRIVMSPMGMYSSHEKDGKLTPFHMAHYISRAIGQVGLIIVEASAVNPQGRYTDQDLGIWSDEHIEGFAKLTEQVKEQGSKIGIQLAHAGRKAELEGDIFAPSAIAFDEQSATPVEMSAEKVKETVQEFKQAAARAKEAGFDVIEIHAAHGYLIHEFLSPLSNHRTDEYGGSPENRYRFLREIIDEVKQVWDGPLFVRVSASDYTDKGLDIADHIGFAKWMKEQGVDLIDCSSGALVHADINVFPGYQVSFAEKIREQADMATGAVGMITDGSMAEEILQNGRADLIFIGRELLRDPFFARTAAKQLNTEIPAPVQYERGW"
  readout-label: "kcat/Km"
  unit-annotation: "M⁻¹ s⁻¹"
  numeric-value: 1310
- protein: "YqjM (Bacillus subtilis subsp. subtilis str. 168; C26A/I69Y) (protein, ene-reductase, FMN enzyme) ARKLFTPITIKDMTLKNRIVMSPMAMYSSHEKDGKLTPFHMAHYISRAIGQVGLIIVEASAVNPQGRYTDQDLGIWSDEHIEGFAKLTEQVKEQGSKIGIQLAHAGRKAELEGDIFAPSAIAFDEQSATPVEMSAEKVKETVQEFKQAAARAKEAGFDVIEIHAAHGYLIHEFLSPLSNHRTDEYGGSPENRYRFLREIIDEVKQVWDGPLFVRVSASDYTDKGLDIADHIGFAKWMKEQGVDLIDCSSGALVHADINVFPGYQVSFAEKIREQADMATGAVGMITDGSMAEEILQNGRADLIFIGRELLRDPFFARTAAKQLNTEIPAPVQYERGW"
  readout-label: "kcat/Km"
  unit-annotation: "M⁻¹ s⁻¹"
  numeric-value: 340
- protein: "YqjM (Bacillus subtilis subsp. subtilis str. 168) (protein, ene-reductase, FMN enzyme) ARKLFTPITIKDMTLKNRIVMSPMCMYSSHEKDGKLTPFHMAHYISRAIGQVGLIIVEASAVNPQGRITDQDLGIWSDEHIEGFAKLTEQVKEQGSKIGIQLAHAGRKAELEGDIFAPSAIAFDEQSATPVEMSAEKVKETVQEFKQAAARAKEAGFDVIEIHAAHGYLIHEFLSPLSNHRTDEYGGSPENRYRFLREIIDEVKQVWDGPLFVRVSASDYTDKGLDIADHIGFAKWMKEQGVDLIDCSSGALVHADINVFPGYQVSFAEKIREQADMATGAVGMITDGSMAEEILQNGRADLIFIGRELLRDPFFARTAAKQLNTEIPAPVQYERGW"
  readout-label: "kcat/Km"
  unit-annotation: "M⁻¹ s⁻¹"
  numeric-value: 30

Attention now shifts to the item below.
What the record says about YqjM (Bacillus subtilis subsp. subtilis str. 168; I69G) (protein, ene-reductase, FMN enzyme) ARKLFTPITIKDMTLKNRIVMSPMCMYSSHEKDGKLTPFHMAHYISRAIGQVGLIIVEASAVNPQGRGTDQDLGIWSDEHIEGFAKLTEQVKEQGSKIGIQLAHAGRKAELEGDIFAPSAIAFDEQSATPVEMSAEKVKETVQEFKQAAARAKEAGFDVIEIHAAHGYLIHEFLSPLSNHRTDEYGGSPENRYRFLREIIDEVKQVWDGPLFVRVSASDYTDKGLDIADHIGFAKWMKEQGVDLIDCSSGALVHADINVFPGYQVSFAEKIREQADMATGAVGMITDGSMAEEILQNGRADLIFIGRELLRDPFFARTAAKQLNTEIPAPVQYERGW : kcat/Km is 110
